The reported measurements were obtained from patent US12162879B2.

The entries below are paired with their reported EC50.
# TARGET_OR_TEST_SYSTEM: human TLR8 (Homo sapiens (Human), UniProt Q9NR97)
# Sequence (Q9NR97 27-1041): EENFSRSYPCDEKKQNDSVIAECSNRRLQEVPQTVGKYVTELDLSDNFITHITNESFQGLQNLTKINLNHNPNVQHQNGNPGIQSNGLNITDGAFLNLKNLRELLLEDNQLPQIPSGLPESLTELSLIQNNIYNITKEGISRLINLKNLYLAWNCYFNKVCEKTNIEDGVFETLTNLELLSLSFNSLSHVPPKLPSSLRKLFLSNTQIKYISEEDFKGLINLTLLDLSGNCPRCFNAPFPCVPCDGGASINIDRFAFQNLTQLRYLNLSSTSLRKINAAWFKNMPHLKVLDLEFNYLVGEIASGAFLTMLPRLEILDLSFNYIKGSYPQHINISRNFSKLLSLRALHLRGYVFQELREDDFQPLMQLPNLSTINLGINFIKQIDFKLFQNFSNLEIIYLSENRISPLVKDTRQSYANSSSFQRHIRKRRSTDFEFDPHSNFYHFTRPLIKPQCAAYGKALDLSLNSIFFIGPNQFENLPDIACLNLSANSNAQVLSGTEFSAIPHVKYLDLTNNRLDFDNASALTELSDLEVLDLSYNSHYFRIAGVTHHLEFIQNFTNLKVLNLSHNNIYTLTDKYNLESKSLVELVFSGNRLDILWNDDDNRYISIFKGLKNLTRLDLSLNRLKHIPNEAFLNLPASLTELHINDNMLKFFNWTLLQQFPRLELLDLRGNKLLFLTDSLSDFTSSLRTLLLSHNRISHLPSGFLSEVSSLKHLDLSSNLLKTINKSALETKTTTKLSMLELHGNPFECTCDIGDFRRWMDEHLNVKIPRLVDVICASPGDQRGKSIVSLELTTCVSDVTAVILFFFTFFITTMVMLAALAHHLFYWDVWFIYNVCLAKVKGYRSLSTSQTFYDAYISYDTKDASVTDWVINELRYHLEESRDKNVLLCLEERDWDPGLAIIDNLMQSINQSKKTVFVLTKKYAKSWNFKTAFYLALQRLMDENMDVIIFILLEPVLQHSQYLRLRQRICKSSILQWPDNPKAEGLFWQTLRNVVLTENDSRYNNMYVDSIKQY
# MEASUREMENT_PROTOCOL: Agonist activity on human TLR8 in HEK-Blue hTLR8 stably transfected cells
# DETAILS: 16 hours, OD 620 nm
ASSAY_READOUT: EC50 (nM)

SMILES_STRUCTURE: CCCC[C@](C)(CO)Nc1nc(N)nc2cc(-c3ccc(C4CCN(C)CC4)nc3)cnc12
ASSAY_READOUT: EC50
QUANTITY_UNIT: nM
ENDPOINT_RESULT: 100
--
SMILES_STRUCTURE: CCCC[C@](C)(CO)Nc1nc(N)nc2cc(-c3cnc(CN4CCN(C)CC4)nc3)cnc12
ASSAY_READOUT: EC50
QUANTITY_UNIT: nM
ENDPOINT_RESULT: 80
--
SMILES_STRUCTURE: CCCC[C@](C)(CO)Nc1nc(N)nc2cc(-c3ccc(CN4CCN(C)CC4)nc3)cnc12
ASSAY_READOUT: EC50
QUANTITY_UNIT: nM
ENDPOINT_RESULT: 100
